Target: human PD-L1 (human, UniProt Q9NZQ7 19-290)
Sequence (Q9NZQ7 19-290): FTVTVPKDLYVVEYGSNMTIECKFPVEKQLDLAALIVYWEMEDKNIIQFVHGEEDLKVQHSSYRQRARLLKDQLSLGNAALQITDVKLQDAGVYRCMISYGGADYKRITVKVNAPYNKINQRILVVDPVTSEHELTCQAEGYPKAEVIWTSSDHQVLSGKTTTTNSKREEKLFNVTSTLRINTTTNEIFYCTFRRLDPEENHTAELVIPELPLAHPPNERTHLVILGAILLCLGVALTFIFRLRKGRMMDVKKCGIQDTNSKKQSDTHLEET
Test: cell-based or functional assay
Readout Kind: EC50, Jurkat-NFAT-hPD1 reporter

INSERT INTO assay_data (binder, readout_kind, value_measured) VALUES
  ('PR006248 (antibody, human IgG1, V domains shown, HCAb; human IgG1 Fc; no light chain) VH: QVQLVESGGGVVQPGMSLRLSCAASGFDFSSYGMYWVRQAPGKGQEWVASIRYTGTEKHYADSVKGRFTISRDNSKNTLYLEMNSLRVEDTAVYYCAKNRALFGVIPDDSDIRGQGTMVTVSS', 'EC50, Jurkat-NFAT-hPD1 reporter', '0.121 nM'),
  ('PR006245 (antibody, human IgG1, V domains shown, HCAb; human IgG1 Fc; no light chain) VH: QVQLVESGGGVVQPGMSLRLSCAASGFDFSSYGMYWVRQAPGKGQEWVASIRYTGTEKHYADSVKGRFTISRDNSKNTLYLEMNSLRVEDTAVYYCAKNRAIFGVVPDASDIRGQGTMVTVSS', 'EC50, Jurkat-NFAT-hPD1 reporter', '0.151 nM'),
  ('PR006246 (antibody, human IgG1, V domains shown, HCAb; human IgG1 Fc; no light chain) VH: QVQLVESGGGVVQPGMSLRLSCAASGFDFSSYGMYWVRQAPGKGQEWVASIRYTGTEKHYADSVKGRFTISRDNSKNTLYLEMNSLRVEDTAVYYCAKNRAIFGVIPDDSDIRGQGTMVTVSS', 'EC50, Jurkat-NFAT-hPD1 reporter', '0.132 nM');
